# target-entity: CD74 (human), P04233
# Sequence (P04233 whole entry): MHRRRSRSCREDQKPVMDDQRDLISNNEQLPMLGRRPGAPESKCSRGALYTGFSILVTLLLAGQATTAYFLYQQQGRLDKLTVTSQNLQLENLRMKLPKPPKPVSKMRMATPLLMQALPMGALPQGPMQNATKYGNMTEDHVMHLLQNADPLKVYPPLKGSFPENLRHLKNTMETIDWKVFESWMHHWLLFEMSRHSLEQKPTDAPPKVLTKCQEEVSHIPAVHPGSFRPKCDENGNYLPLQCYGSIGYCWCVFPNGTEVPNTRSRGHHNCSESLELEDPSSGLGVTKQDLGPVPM
# experiment: cell-based or functional assay
assay-readout: cell killing Span, BDCM (AML) cells (%)
Please give a number only; it is taken to be in %.

# input Which cell killing Span, BDCM (AML) cells value is on record for Conjugate C (anti-CD74 IgG-val-cit-PAB-hemiasterlin conjugate) (antibody, V domains shown, here or on the partner: modified amino acid residue 30 (pAMF) according to Example 2, position not stated for this conjugate, linked to val-cit-PAB-hemiasterlin) VH: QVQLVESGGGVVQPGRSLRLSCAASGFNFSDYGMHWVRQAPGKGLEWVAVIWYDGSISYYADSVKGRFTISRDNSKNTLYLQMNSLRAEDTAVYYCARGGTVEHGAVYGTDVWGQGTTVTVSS VL: DIQMTQSPSSVSASVGDRVTITCRASQGIGSWLAWYQQKPGKAPKLLIYAADRLQSGVPSRFSGSGSGTDFTLTISSLQPEDFATYYCQQYHTYPLTFGGGTKVEIK ?
# output 89

Every entry's value here was drawn from patent US20200207859A1.
